# System: U2OS
# protocol_notes: Multiplex assay against U2OS
# Format: toxicity, cell-based
# experimental_conditions: human, 12 h, 10 µM, compound concentration 10 uM, replicate 2
Threshold 90%: Population Mitochondria Different-Phenotype (%) strictly smaller gives Met, otherwise Not met.

I wonder whether CC[C@H](C)C(=O)O[C@H]1C[C@@H](C)C=C2C=C[C@H](C)[C@H](CC[C@@H]3C[C@@H](O)CC(=O)O3)[C@H]21 has Population Mitochondria Different-Phenotype (%) below 90%. Can you tell?
Met

I wonder whether O=C1NCN(c2ccccc2)C12CCN(CCCOc1ccc(F)cc1)CC2 [SPIRAMIDE] has Population Mitochondria Different-Phenotype (%) below 90%. Can you tell?
Met

I wonder whether Cn1cc(-c2[nH]c3cc(NC(=O)[C@H](N)C4CCCCC4)cc4c3c2C=NNC4=O)cn1 has Population Mitochondria Different-Phenotype (%) below 90%. Can you tell?
Met

I wonder whether CN(C)CC#Cc1ccc(OCCCc2sc(N3CCc4cccc(C(=O)Nc5nc6ccccc6s5)c4C3)nc2C(=O)O)c(F)c1 has Population Mitochondria Different-Phenotype (%) below 90%. Can you tell?
Met

I wonder whether Cc1csc2c(N[C@@H](C)CN3CCN(S(=O)(=O)c4ccc(Cl)c(Cl)c4)CC3)ncnc12 has Population Mitochondria Different-Phenotype (%) below 90%. Can you tell?
Not met

I wonder whether Cl.N#Cc1ccc2[nH]cc(CCCCN3CCN(c4ccc5oc(C(N)=O)cc5c4)CC3)c2c1 [VILAZODONE HYDROCHLORIDE] has Population Mitochondria Different-Phenotype (%) below 90%. Can you tell?
Met

I wonder whether Cc1cc(C)cc(-c2cnc3cc(Cl)c(-c4cccc(O)c4)cc3c2OCCCN)c1 has Population Mitochondria Different-Phenotype (%) below 90%. Can you tell?
Not met

I wonder whether CN1CCC[C@@H]1CCO[C@](C)(c1ccccc1)c1ccc(Cl)cc1.O=C(O)/C=C/C(=O)O [CLEMASTINE FUMARATE] has Population Mitochondria Different-Phenotype (%) below 90%. Can you tell?
Met
